Value source: patent US5344843A

- tested_system: CAT-1 (carnitine acyltransferase 1) (Rattus norvegicus, UniProt Q63704)
- Construct: This preparation is used as the isolated mitochondrial preparation; from tissue; host or cells: rat heart (atria removed), isolated mitochondria
- Sequence (Q63704 1-772): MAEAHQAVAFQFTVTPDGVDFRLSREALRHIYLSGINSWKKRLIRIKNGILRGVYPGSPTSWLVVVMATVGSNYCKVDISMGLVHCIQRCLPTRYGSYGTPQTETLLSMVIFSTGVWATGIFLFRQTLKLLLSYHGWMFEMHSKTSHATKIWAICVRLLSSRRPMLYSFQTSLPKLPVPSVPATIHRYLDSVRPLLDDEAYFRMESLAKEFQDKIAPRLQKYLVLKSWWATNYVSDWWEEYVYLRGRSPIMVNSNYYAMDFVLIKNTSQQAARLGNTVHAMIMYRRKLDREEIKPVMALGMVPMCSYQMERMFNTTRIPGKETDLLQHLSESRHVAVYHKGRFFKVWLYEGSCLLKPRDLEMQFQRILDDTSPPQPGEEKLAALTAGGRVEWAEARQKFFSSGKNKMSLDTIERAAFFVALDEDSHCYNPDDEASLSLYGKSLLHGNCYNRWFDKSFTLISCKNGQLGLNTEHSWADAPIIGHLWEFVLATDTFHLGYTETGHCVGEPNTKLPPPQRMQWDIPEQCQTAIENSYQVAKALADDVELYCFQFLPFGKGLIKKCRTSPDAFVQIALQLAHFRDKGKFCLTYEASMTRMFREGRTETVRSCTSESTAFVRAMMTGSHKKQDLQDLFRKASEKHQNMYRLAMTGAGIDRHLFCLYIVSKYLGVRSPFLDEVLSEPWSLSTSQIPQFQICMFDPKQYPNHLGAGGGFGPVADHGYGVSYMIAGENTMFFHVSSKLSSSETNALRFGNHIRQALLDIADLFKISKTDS
- protocol_text: Primary Screen--Inhibition of CAT-1 in isolated mitochondria
- Assay type: biochemical
- run_conditions: rat heart mitochondria, reduction of palmitoyl carnitine formation by 50%; read-out: Primary Screen IC50
measured_attribute: IC50 (nM)

A: O=C(O)C(=O)c1ccc(OCCSc2ccccc2)cc1
B: O=C(O)C(=O)c1c(F)c(F)c(OCCOc2ccc3ccccc3c2)c(F)c1F
When their IC50 values are compared, which is larger, A or B ? Provide the label of your selected option as the answer.
B
